These entries and their values trace back to patent US20250346644A1.

# TARGET_OR_SYSTEM: T1, hIL2-DM-his (human, UniProt P60568 21-153)
# T1 construct: expressed in ExpiCHO-S cells, nickel-column purified; also called hIL-2 mutein containing two point mutations K64G and N90R (with a his-tag); not shown: his-tag
# T1 sequence (P60568 21-153 K84G/N110R): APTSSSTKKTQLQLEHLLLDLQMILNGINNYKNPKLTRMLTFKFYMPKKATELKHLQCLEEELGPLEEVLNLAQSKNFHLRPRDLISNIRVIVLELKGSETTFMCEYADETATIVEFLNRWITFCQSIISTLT
# EXPERIMENT_DESCRIPTION: BLI ForteBio, Ab on Protein A sensor
PROPERTY_LABEL: Binding Response (nm)
Field format: number, assumed nm, no unit text.

[[record]]
binder = "hS4B6-H6K3 (antibody, V domains shown, full antibody) VH: QVQLVQSGAEVKKPGATVKISCKVSGDTITAYYLHWVRQAPGQGLEWIGRIDPEDDSTKYAENFKNRVTITADTSTNTAYMELSSLRSEDTAVYYCTTVTFYYSRELRWFAYWGQGTLVTVSS VL: DIVLTQSPATLSLSPGERATLSCQASQDIGNYLSWYQQKPGQAPRLLIYSATSLADGIPARFSGSRSGTDYTLTISSLEPEDFAVYYCLQHYSTPYTFGQGTKLEIK"
test_result = 0.133

[[record]]
binder = "hS4B6-H6K3-hu06 (antibody, V domains shown, H6K3 with heavy chain N65S) VH: QVQLVQSGAEVKKPGATVKISCKVSGDTITAYYLHWVRQAPGQGLEWIGRIDPEDDSTKYAENFKSRVTITADTSTNTAYMELSSLRSEDTAVYYCTTVTFYYSRELRWFAYWGQGTLVTVSS VL: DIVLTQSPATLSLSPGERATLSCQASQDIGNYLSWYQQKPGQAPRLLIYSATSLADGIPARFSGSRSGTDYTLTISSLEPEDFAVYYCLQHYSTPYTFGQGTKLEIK"
test_result = 0.135

[[record]]
binder = "hS4B6-H6K3-hu10 (antibody, V domains shown, H6K3 with light chain D56T) VH: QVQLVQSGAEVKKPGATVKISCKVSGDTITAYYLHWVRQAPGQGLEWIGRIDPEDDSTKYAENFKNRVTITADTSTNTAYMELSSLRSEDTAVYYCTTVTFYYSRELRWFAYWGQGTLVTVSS VL: DIVLTQSPATLSLSPGERATLSCQASQDIGNYLSWYQQKPGQAPRLLIYSATSLATGIPARFSGSRSGTDYTLTISSLEPEDFAVYYCLQHYSTPYTFGQGTKLEIK"
test_result = 0.172


Okay, next one:
Qu. // lookup Binding Response (nm) for hS4B6-H6K3-hu12 (antibody, V domains shown, H6K3 with light chain Y71F) VH: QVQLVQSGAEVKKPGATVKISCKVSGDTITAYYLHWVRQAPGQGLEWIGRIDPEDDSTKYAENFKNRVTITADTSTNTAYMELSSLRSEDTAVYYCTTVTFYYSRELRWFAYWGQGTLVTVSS VL: DIVLTQSPATLSLSPGERATLSCQASQDIGNYLSWYQQKPGQAPRLLIYSATSLADGIPARFSGSRSGTDFTLTISSLEPEDFAVYYCLQHYSTPYTFGQGTKLEIK
Ans. 0.152
